Please go through the items and note down their trkA % inhibition @ 1 uM.
# target: baculovirus-expressed human trkA cytoplasmic domain (Homo sapiens, UniProt P04629)
# Construct: baculovirus-expressed human trkA cytoplasmic domain; host or cells: baculovirus expression system
# Sequence (P04629 440-796 limits assumed): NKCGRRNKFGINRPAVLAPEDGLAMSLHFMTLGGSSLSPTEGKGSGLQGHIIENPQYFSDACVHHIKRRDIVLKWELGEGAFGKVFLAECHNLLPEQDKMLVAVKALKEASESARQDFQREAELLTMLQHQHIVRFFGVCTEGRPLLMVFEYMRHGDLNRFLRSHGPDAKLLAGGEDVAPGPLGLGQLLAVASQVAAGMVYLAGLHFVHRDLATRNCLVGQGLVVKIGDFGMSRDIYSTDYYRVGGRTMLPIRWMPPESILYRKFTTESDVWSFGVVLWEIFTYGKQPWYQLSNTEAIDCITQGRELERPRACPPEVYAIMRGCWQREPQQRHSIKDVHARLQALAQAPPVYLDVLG
# assay_details: trkA tyrosine kinase inhibition assay (ELISA-based)
# Type: biochemical
# particulars: 1 uM compound; 40 μM ATP
Give bare numbers, in %.

>>> measured_number("Cc1cccc2c(C=C3C(=O)NN=C3c3ccco3)c[nH]c12")
37
>>> measured_number("Cc1cc(C)c(C=C2C(=O)NN=C2c2csc(-c3ccccc3)n2)[nH]1")
27
>>> measured_number("COc1ccc2[nH]cc(C=C3C(=O)NN=C3c3ccoc3)c2c1")
65
>>> measured_number("Cc1cccc2c(C=C3C(=O)NN=C3c3ccn(C)c3)c[nH]c12")
25

For each entry beneath this line, provide reported trkA % inhibition @ 1 uM.
1. O=C1NN=C(c2nccs2)C1=Cc1cn(Cc2ccccc2)c2ccccc12
2. O=C1NN=C(c2ccco2)C1=Cc1c[nH]c2cccc(OCc3ccccc3)c12
3. Cc1ccc2c(C=C3C(=O)NN=C3c3ccn(C)c3)c[nH]c2c1
4. Cc1cc(C)c(C=C2C(=O)NN=C2c2ccn(C)c2)[nH]1

### Response
32
23
32
26

For each entry beneath this line, provide reported trkA % inhibition @ 1 uM.
1. Cc1cc(C)c(C=C2C(=O)NN=C2c2csc3ccccc23)[nH]1
2. Cc1c(I)[nH]c(C=C2C(=O)NN=C2c2ccoc2)c1I

### Response
1: 31; 2: 31

### Prompt What value of measured trkA % inhibition @ 1 uM is listed for O=C1NN=C(c2ccoc2)C1=Cc1ccc[nH]1 ?
### Response 44
